assayed system: Urokinase-type plasminogen activator (Homo sapiens, UniProt P00749)
test summary: Inhibition of recombinant C-terminal His10-tagged human uPA (M1 to L431 residues) expressed in mouse NS0 cells using Z-GGR-AMC as substrate after 15 mins by automated fluorescence assay
assay readout: IC50 (µM)
Express your answer in µM, writing the number without its unit.

Completed entries (count: 5):
compound | assayed system | IC50 [µM]
CCCCC(NS(=O)(=O)c1ccc(C)cc1)C(=O)Nc1ccc(C(=N)N)cc1F (configuration not stated) | Urokinase-type plasminogen activator (Homo sapiens, UniProt P00749) | 8
Cc1ccc(S(=O)(=O)NC(C(=O)Nc2ccc(C(=N)N)cc2)C2CCCC2)cc1 (configuration not stated) | Urokinase-type plasminogen activator (Homo sapiens, UniProt P00749) | 64
CCOC(=O)N1CCN(C(=O)[C@@H](Cc2cccc(C(=N)N)c2)NS(=O)(=O)c2c(C(C)C)cc(C(C)C)cc2C(C)C)CC1 | Urokinase-type plasminogen activator (Homo sapiens, UniProt P00749) | 0.285
Cc1ccc(S(=O)(=O)NC(C(=O)Nc2ccc(C(=N)N)cc2)C(C)C)cc1 (configuration not stated) | Urokinase-type plasminogen activator (Homo sapiens, UniProt P00749) | 7.2
Cc1ccc(S(=O)(=O)NCC(Cc2ccccc2)C(=O)Nc2ccc(C(=N)N)cc2)cc1 (configuration not stated) | Urokinase-type plasminogen activator (Homo sapiens, UniProt P00749) | 1

Which IC50 reading was recorded for the compound `Cc1ccc(C(=O)N[C@@H](C(=O)Nc2ccc(C(=N)N)cc2)C2CCCCC2)cc1` ?
24.5

Which IC50 reading was recorded for the compound Cc1ccc(S(=O)(=O)NC(CC(=O)Nc2ccc(C(=N)N)cc2)C2CCCCC2)cc1 (configuration not stated) ?
68

Ref: ChEMBL document CHEMBL4118144
